Ref: the supplement of paper PMC9112550

Test system: Escherichia coli TOP10
Test: shrunken log2 fold change of peptide-encoding DNA abundance (4.5 h post-induction vs induction); higher = less antimicrobial activity (less host growth inhibition)
Settings: time post-induction: 4.5 h; library: site-saturation at positions 5, 18, 19, 20
measured quantity: shrunken log2 fold change
No unit in the answer, please; the number alone is enough.

Would you please look over these solved cases?
RRIRPRPPRLPRPRPRPCGVPRP = 0.205
RRIRIRPPRLPRPRPRPIMGPRP = -0.08
RRIRMRPPRLPRPRPRPMKPPRP = -0.00107
RRIRERPPRLPRPRPRPKPDPRP = 0.0317

IN: Under Escherichia coli TOP10: report shrunken log2 fold change of RRIRERPPRLPRPRPRPWSGPRP .
OUT: -0.48

IN: Under Escherichia coli TOP10: report shrunken log2 fold change of RRIRERPPRLPRPRPRPHMSPRP .
OUT: -0.27

IN: Under Escherichia coli TOP10: report shrunken log2 fold change of RRIRRRPPRLPRPRPRPSRIPRP .
OUT: 0.157

IN: Under Escherichia coli TOP10: report shrunken log2 fold change of RRIRKRPPRLPRPRPRPMDEPRP .
OUT: 0.966

IN: Under Escherichia coli TOP10: report shrunken log2 fold change of RRIRCRPPRLPRPRPRPVGGPRP .
OUT: 0.273

IN: Under Escherichia coli TOP10: report shrunken log2 fold change of RRIRTRPPRLPRPRPRPYQIPRP .
OUT: -0.0573

* * *

System: Escherichia coli TOP10;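 note: peptides expressed intracellularly from a pBAD plasmid library in pooled LB shake-flask culture, induced with 0.3% L-arabinose, DNA abundance read by NGS, three biological replicates, DESeq2 with apeglm shrinkage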
Assay: shrunken log2 fold change of peptide-encoding DNA abundance (4.5 h post-induction vs induction); higher = less antimicrobial activity (less host growth inhibition)
Settings: time post-induction: 4.5 h; library: site-saturation at positions 5, 18, 19, 20
measured quantity: shrunken log2 fold change
No unit in the answer, please; the number alone is enough.

Would you please look over these solved cases?
RRIRWRPPRLPRPRPRPGLSPRP = -0.0318
RRIRPRPPRLPRPRPRPCHKPRP = -0.0956
RRIRSRPPRLPRPRPRPKSIPRP = -0.228
RRIRVRPPRLPRPRPRPSWCPRP = 0.123
RRIRSRPPRLPRPRPRPEGCPRP = 0.0128

IN: In one line, give reported shrunken log2 fold change of the entry RRIRARPPRLPRPRPRPCLSPRP .
OUT: 0.233

IN: In one line, give reported shrunken log2 fold change of the entry RRIRFRPPRLPRPRPRPDCFPRP .
OUT: -0.00719

IN: In one line, give reported shrunken log2 fold change of the entry RRIRWRPPRLPRPRPRPWTVPRP .
OUT: -0.0123

IN: In one line, give reported shrunken log2 fold change of the entry RRIRTRPPRLPRPRPRPTFIPRP .
OUT: -0.39

IN: In one line, give reported shrunken log2 fold change of the entry RRIRARPPRLPRPRPRPMSHPRP .
OUT: 0.148

IN: In one line, give reported shrunken log2 fold change of the entry RRIRGRPPRLPRPRPRPFTPPRP .
OUT: 0.0836

IN: In one line, give reported shrunken log2 fold change of the entry RRIRQRPPRLPRPRPRPGKFPRP .
OUT: -0.148

IN: In one line, give reported shrunken log2 fold change of the entry RRIRGRPPRLPRPRPRPIERPRP .
OUT: -0.00587

IN: In one line, give reported shrunken log2 fold change of the entry RRIRVRPPRLPRPRPRPHWSPRP .
OUT: -0.191

IN: In one line, give reported shrunken log2 fold change of the entry RRIRPRPPRLPRPRPRPSVVPRP .
OUT: -0.162

IN: In one line, give reported shrunken log2 fold change of the entry RRIRFRPPRLPRPRPRPLECPRP .
OUT: -0.0348

IN: In one line, give reported shrunken log2 fold change of the entry RRIRCRPPRLPRPRPRPGDLPRP .
OUT: -0.314

IN: In one line, give reported shrunken log2 fold change of the entry RRIRWRPPRLPRPRPRPYCLPRP .
OUT: -0.633
